src = patent US20250368745A1

Molecular target: T1, cynomolgus IL-18BP (cynomolgus monkey)
T1 construct: Generated in-house; also called cyIL-18BP; cyno IL-18BP
T1 chain: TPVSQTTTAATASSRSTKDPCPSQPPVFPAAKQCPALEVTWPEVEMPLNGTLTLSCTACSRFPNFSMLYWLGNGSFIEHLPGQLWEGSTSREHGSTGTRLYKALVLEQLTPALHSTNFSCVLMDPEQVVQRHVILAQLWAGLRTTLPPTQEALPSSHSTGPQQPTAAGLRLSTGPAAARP
Test: BLI single-concentration screen, apparent KD
# maps each entry to its Kd
Record the value in nM, omitting the unit from your answer.

Binder | Kd, nM
heavy chain library variant C34N (antibody, V domains shown, position 34 variant, human IgG1/kappa, from supernatant; C is the SA44a residue) VH: QVQLQESGPGLVKPSQTLSLTCTVSGYSITSDYNNHWIRQPPGKGLEWIGYIHYSGSTNYNPSLKSRVTISRDTSKNQFSLKLSSVTAADTAVYYCARNYGSIYVNYFDYWGQGTLVTVSS VL: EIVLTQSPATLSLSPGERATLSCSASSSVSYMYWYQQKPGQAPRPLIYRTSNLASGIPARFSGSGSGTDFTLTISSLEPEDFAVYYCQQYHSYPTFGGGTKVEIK | 0.6
SA301a heavy chain variant N33bT, C34S (antibody, human IgG1, V domains shown, library variant, human IgG1/kappa, from supernatant) VH: QVQLQESGPGLVKPSQTLSLTCTVSGYSITSDYTSHWIRQPPGKGLEWIGYIHYSGSTNYNPSLKSRVTISRDTSKNQFSLKLSSVTAADTAVYYCARNYGSIYVNYFDYWGQGTLVTVSS VL: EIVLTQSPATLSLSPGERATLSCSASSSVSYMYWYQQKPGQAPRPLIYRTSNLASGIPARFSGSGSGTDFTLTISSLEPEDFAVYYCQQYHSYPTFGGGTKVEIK | 0.4
heavy chain library variant C34Q (antibody, V domains shown) VH: QVQLQESGPGLVKPSQTLSLTCTVSGYSITSDYNQHWIRQPPGKGLEWIGYIHYSGSTNYNPSLKSRVTISRDTSKNQFSLKLSSVTAADTAVYYCARNYGSIYVNYFDYWGQGTLVTVSS VL: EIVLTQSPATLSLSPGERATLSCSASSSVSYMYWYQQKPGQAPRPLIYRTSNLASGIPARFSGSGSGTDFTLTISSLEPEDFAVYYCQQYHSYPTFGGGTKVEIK | 0.4
heavy chain library variant C34K (antibody, V domains shown) VH: QVQLQESGPGLVKPSQTLSLTCTVSGYSITSDYNKHWIRQPPGKGLEWIGYIHYSGSTNYNPSLKSRVTISRDTSKNQFSLKLSSVTAADTAVYYCARNYGSIYVNYFDYWGQGTLVTVSS VL: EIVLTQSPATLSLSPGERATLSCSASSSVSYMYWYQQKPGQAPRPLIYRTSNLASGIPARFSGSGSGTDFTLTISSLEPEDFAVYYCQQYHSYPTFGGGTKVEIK | 0.5
SA301a heavy chain variant N33bQ, C34S (antibody, human IgG1, V domains shown, library variant, human IgG1/kappa, from supernatant) VH: QVQLQESGPGLVKPSQTLSLTCTVSGYSITSDYQSHWIRQPPGKGLEWIGYIHYSGSTNYNPSLKSRVTISRDTSKNQFSLKLSSVTAADTAVYYCARNYGSIYVNYFDYWGQGTLVTVSS VL: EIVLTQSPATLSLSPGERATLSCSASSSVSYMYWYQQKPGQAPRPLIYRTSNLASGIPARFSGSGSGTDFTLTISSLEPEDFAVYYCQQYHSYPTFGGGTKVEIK | 1.1
SA301a heavy chain variant N33bV, C34S (antibody, human IgG1, V domains shown, library variant, human IgG1/kappa, from supernatant) VH: QVQLQESGPGLVKPSQTLSLTCTVSGYSITSDYVSHWIRQPPGKGLEWIGYIHYSGSTNYNPSLKSRVTISRDTSKNQFSLKLSSVTAADTAVYYCARNYGSIYVNYFDYWGQGTLVTVSS VL: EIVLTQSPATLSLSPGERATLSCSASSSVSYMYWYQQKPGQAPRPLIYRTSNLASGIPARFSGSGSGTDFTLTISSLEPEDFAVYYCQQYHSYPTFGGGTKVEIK | 0.3

## Input So what's the measured Kd for this one? SA301a heavy chain variant N33bK, C34S (antibody, human IgG1, V domains shown, library variant, human IgG1/kappa, from supernatant) VH: QVQLQESGPGLVKPSQTLSLTCTVSGYSITSDYKSHWIRQPPGKGLEWIGYIHYSGSTNYNPSLKSRVTISRDTSKNQFSLKLSSVTAADTAVYYCARNYGSIYVNYFDYWGQGTLVTVSS VL: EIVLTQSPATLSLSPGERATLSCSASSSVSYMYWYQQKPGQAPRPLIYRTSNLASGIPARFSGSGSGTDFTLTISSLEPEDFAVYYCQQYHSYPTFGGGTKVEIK
## Output 0.9

## Input Fill in the blank: the reported Kd of SA301a heavy chain variant N33bE, C34S (antibody, human IgG1, V domains shown, library variant, human IgG1/kappa, from supernatant) VH: QVQLQESGPGLVKPSQTLSLTCTVSGYSITSDYESHWIRQPPGKGLEWIGYIHYSGSTNYNPSLKSRVTISRDTSKNQFSLKLSSVTAADTAVYYCARNYGSIYVNYFDYWGQGTLVTVSS VL: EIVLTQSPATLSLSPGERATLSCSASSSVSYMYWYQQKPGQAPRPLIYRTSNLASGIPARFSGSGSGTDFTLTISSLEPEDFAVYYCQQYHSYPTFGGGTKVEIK is ____.
## Output 0.2
